Catalogue of mean rank binding to CCL5 values
molecular target: UniProt:P13501; assay: Chemokine glycan microarray binding assay; settings: maximum RFU set as 100% binding, average across 2 glycan concentrations and 3 chemokine dilutions (n=6)
Sequence (P13501 24-91, species assumed): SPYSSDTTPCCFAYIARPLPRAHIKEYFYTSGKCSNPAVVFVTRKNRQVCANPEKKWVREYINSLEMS
Measurement name: mean rank binding to CCL5 (%)

| Compound | Target system | Data value |
| --- | --- | --- |
| NCCOCCO[C@@H]1O[C@@H](C(=O)O)[C@@H](O[C@@H]2O[C@@H](C(=O)O)[C@@H](O[C@@H]3O[C@@H](C(=O)O)[C@@H](O[C@@H]4O[C@@H](C(=O)O)[C@@H](OS(=O)(=O)O)[C@H](O)[C@H]4OS(=O)(=O)O)[C@H](O)[C@H]3OS(=O)(=O)O)[C@H](O)[C@H]2OS(=O)(=O)O)[C@H](O)[C@H]1OS(=O)(=O)O | UniProt:P13501 | 91 |
| NCCOCCO[C@@H]1OC(C(=O)O)[C@@H](O[C@@H]2OC(C(=O)O)[C@@H](O[C@@H]3OC(C(=O)O)[C@@H](O[C@@H]4OC(C(=O)O)[C@@H](O)C(O)C4O)C(O)C3O)C(O)C2O)C(O)C1O (stereo partly shown) | UniProt:P13501 | 86 |
| NCCOCCO[C@@H]1OC(C(=O)O)[C@@H](O[C@@H]2OC(C(=O)O)[C@@H](O)C(O)C2O)C(O)C1O (stereo partly shown) | UniProt:P13501 | 2 |
| NCCOCCO[C@@H]1O[C@@H](C(=O)O)[C@@H](O[C@@H]2O[C@@H](C(=O)O)[C@@H](O[C@@H]3O[C@@H](C(=O)O)[C@@H](OS(=O)(=O)O)[C@H](O)[C@H]3O)[C@H](O)[C@H]2O)[C@H](O)[C@H]1O | UniProt:P13501 | 10 |
| NCCCO[C@@H]1OC(C(=O)O)[C@@H](O[C@H]2OC(COS(=O)(=O)O)[C@@H](O[C@@H]3OC(C(=O)O)[C@@H](O[C@H]4OC(COS(=O)(=O)O)[C@@H](O)[C@H](O)C4N)C(O)[C@@H]3O)[C@H](O)C2N)C(O)[C@@H]1O (stereo partly shown) | UniProt:P13501 | 3 |
| CC(=O)NC1C(O)[C@H](O)C(CO)O[C@@H]1O[C@@H]1C(C(=O)O)O[C@@H](O[C@@H]2C(CO)O[C@H](O[C@@H]3C(C(=O)O)O[C@@H](OCCCN)C(OS(=O)(=O)O)C3O)C(NC(C)=O)C2O)C(OS(=O)(=O)O)C1O (stereo partly shown) | UniProt:P13501 | 1 |
| CC(=O)NC1C(O)[C@H](O)C(COS(=O)(=O)O)O[C@@H]1O[C@@H]1C(C(=O)O)O[C@@H](O[C@@H]2C(COS(=O)(=O)O)O[C@H](O[C@@H]3C(C(=O)O)O[C@@H](OCCCN)C(OS(=O)(=O)O)C3O)C(NC(C)=O)C2O)C(OS(=O)(=O)O)C1O (stereo partly shown) | UniProt:P13501 | 54 |

* * *

target: CCL7 (Homo sapiens); experiment: Chemokine glycan microarray binding assay; settings: maximum RFU set as 100% binding, average across 2 glycan concentrations and 3 chemokine dilutions (n=6)
Sequence (P80098 24-99, species assumed): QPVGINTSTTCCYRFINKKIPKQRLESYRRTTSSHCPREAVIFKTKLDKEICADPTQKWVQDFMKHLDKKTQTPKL
Catalogue of mean rank binding to CCL7 values
Measurement name: mean rank binding to CCL7 (%)

| Compound | Data value |
| --- | --- |
| NCCOCCO[C@@H]1OC(C(=O)O)[C@@H](O)C(O)C1O (some centres unmarked) [Example 1] | 30 |
| NCCCO[C@@H]1O[C@@H](C(=O)O)[C@@H](O[C@H]2O[C@H](CO)[C@@H](O[C@@H]3O[C@@H](C(=O)O)[C@@H](O[C@H]4O[C@H](CO)[C@@H](O)[C@H](OS(=O)(=O)O)[C@H]4N)[C@H](O)[C@H]3O)[C@H](OS(=O)(=O)O)[C@H]2N)[C@H](O)[C@H]1O [Example 22] | 78 |
| NCCCO[C@@H]1O[C@@H](C(=O)O)[C@@H](O[C@H]2O[C@H](COS(=O)(=O)O)[C@@H](O[C@@H]3O[C@@H](C(=O)O)[C@@H](O[C@H]4O[C@H](COS(=O)(=O)O)[C@@H](O)[C@H](OS(=O)(=O)O)[C@H]4N)[C@H](O)[C@H]3O)[C@H](OS(=O)(=O)O)[C@H]2N)[C@H](O)[C@H]1O [Example 17] | 89 |
| NCCOCCO[C@@H]1O[C@@H](C(=O)O)[C@@H](OS(=O)(=O)O)[C@H](O)[C@H]1O [Example 2] | 30 |
| NCCCO[C@@H]1OC(C(=O)O)[C@@H](O[C@H]2OC(COS(=O)(=O)O)[C@@H](O[C@@H]3OC(C(=O)O)[C@@H](O[C@H]4OC(COS(=O)(=O)O)[C@@H](O)[C@H](O)C4N)C(O)[C@@H]3O)[C@H](O)C2N)C(O)[C@@H]1O (some centres unmarked) [Example 23] | 11 |
